The values you see were collected from PubChem BioAssay (Tox21).

test.summary: cAMP Responsive Elements (CRE) small molecule agonists, cell-based qHTS assay: qHTS cell viability counter screen (AID 2060914);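 also: viability read after 3 h of compound exposure; % is scaled to controls: 0 for no effect and ±100 for the full control effect; nearly all actives have a fitted effect of over 50% in size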
experimental.setup: CRE-bla HEK293T viability, CellTiter-Glo luminescence, 5 h; series mostly up to 92.4 µM
Results filed as inconclusive are left out. The source made the active and inactive calls. Calls follow the shape of the dose curve; as a rule, active = well fitted cell-killing curve with a large enough effect in the repeat runs; inconclusive = weak or mixed curves, or effect the other way; inactive = flat fitted curve, though single readings scatter.
value.kind: activity change, negative = cytotoxicity

c1ccc(SCCSc2ccccc2)cc1    inactive
CCC(=O)/C=C/C1C(C)=CCCC1(C)C (stereo not drawn)    inactive
CCCCNS(=O)(=O)c1ccccc1    inactive

====

test.summary: cAMP Responsive Elements (CRE) small molecule antagonists, cell-based qHTS assay: qHTS cell viability counter screen (AID 2060913); also: % is scaled to controls: 0 for no effect and ±100 for the full control effect; nearly all actives have a fitted effect of over 40% in size
experimental.setup: CRE-bla HEK293T viability, CellTiter-Glo luminescence, 5 h; series mostly up to 92.4 µM
Records with an inconclusive call do not appear. Active and inactive are the calls of the source. Calls follow the shape of the dose curve; as a rule, active = well fitted cell-killing curve with a large enough effect in the repeat runs; inconclusive = weak or mixed curves, or effect the other way; inactive = flat fitted curve, though single readings scatter.
value.kind: viability change, negative = cytotoxic

Completed entries (count: 4):
C=CC(=O)OCCOC1C2CCC1C1CC=CC12 (configuration not stated)    9.26% [at 18.9 µM] (inactive)
CCCC(=O)OC/C=C(\C)CCC=C(C)C    inactive
O=C1c2c(O)ccc(O)c2C(=O)c2c(NCCNCCO)ccc(NCCNCCO)c21    inactive
CC(=O)O[C@H]1C[C@@H]2CC[C@@]1(C)C2(C)C    inactive

Returns the measured viability change, negative = cytotoxic for the input molecule. Input: O=Cc1ccc(Cl)c([N+](=O)[O-])c1 inactive

And for Cc1cccc2c1cc1ccc3cccc4ccc2c1c34 ? inactive

And for [O]=[Bi] ? -2.63% [at 8.39 µM] (inactive)

====

test.summary: cAMP Responsive Elements (CRE) small molecule agonists, cell-based qHTS assay: qHTS cell viability counter screen (AID 2060914);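 also: viability read after 3 h of compound exposure; % is scaled to controls: 0 for no effect and ±100 for the full control effect; nearly all actives have a fitted effect of over 50% in size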
experimental.setup: CRE-bla HEK293T viability, CellTiter-Glo luminescence, 5 h; series mostly up to 92.4 µM
Results filed as inconclusive are left out. Calls of active or inactive are those of the source. Calls come from the whole dose curve; as a rule, active = well fitted cell-killing curve with a large enough effect in the repeat runs; inconclusive = weak or mixed curves, or effect the other way; inactive = flat fitted curve, though single readings scatter.
value.kind: activity change, negative = cytotoxicity

CC(=O)N[C@H]1[C@H]([C@H](O)[C@H](O)CO)OC(C(=O)O)=C[C@@H]1N=C(N)N    inactive
CC(=O)CC/C=C(\C)CC/C=C(\C)CC/C=C(\C)CCC=C(C)C    inactive
Cc1ccc2c(n1)Oc1ccc(C(C)C(=O)OCC(=O)N(C)C)cc1C2 (stereo not drawn)    inactive

====

test.summary: cAMP Responsive Elements (CRE) small molecule agonists, cell-based qHTS assay: qHTS cell viability counter screen (AID 2060914);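 also: viability read after 3 h of compound exposure; % is scaled to controls: 0 for no effect and ±100 for the full control effect; nearly all actives have a fitted effect of over 50% in size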
experimental.setup: CRE-bla HEK293T viability, CellTiter-Glo luminescence, 5 h; series mostly up to 92.4 µM
Inconclusive results are not listed. Active and inactive are the calls of the source. Calls come from the whole dose curve; as a rule, active = well fitted cell-killing curve with a large enough effect in the repeat runs; inconclusive = weak or mixed curves, or effect the other way; inactive = flat fitted curve, though single readings scatter.
value.kind: activity change, negative = cytotoxicity

Completed entries (count: 5):
CN1CN(C)CN(C)C1    inactive
CC(C)CCC(=O)CCC(C)C    inactive
CC(C)NC[C@@H](O)COc1cccc2ccccc12    inactive
CC(C)C(=O)OCc1cccc(OC(=O)[C@@H]2N3C(=O)[C@@H](NC(=O)Cc4ccccc4)[C@H]3SC2(C)C)c1    inactive
Cn1sccc1=O    inactive

Returns the measured activity change, negative = cytotoxicity for the input compound. Input: CN(C)c1ccc(C2(c3ccc(N(C)C)cc3)OC(=O)c3cc(N(C)C)ccc32)cc1 inactive

And for C[C@@H]1C[C@H]2[C@@H]3CCC4=CC(=O)C=C[C@]4(C)[C@@]3(F)[C@@H](O)C[C@]2(C)[C@H]1C(=O)CO ? inactive

And for CNCC[C@H](Oc1cccc2ccccc12)c1cccs1 ? inactive

And for COc1ccccc1NC(=O)CC(C)=O ? inactive

And for CCc1c(C)[nH]c2c1C(=O)C(CN1CCOCC1)CC2 (stereo unspecified) ? inactive
